target.or.system: Phosphatidylinositol 4,5-bisphosphate 3-kinase catalytic subunit delta isoform (Homo sapiens)
assay.notes: Inhibition of wild type PI3K-delta (unknown origin) assessed as decrease in ATP consumption at 10 uM using phosphotidylinositol bisphosphate and ATP measured after 60 mins by Kinase-Glo reagent based luminescence assay
quantity.name: inhibition (%)

COc1ccc(-c2c(OCc3ccccn3)ccc3c(=O)nc(N4CCOCC4)oc23)cc1    85.4
COc1ccc(-c2c(OCCN3CCN(C)CC3)ccc3c(=O)nc(N4CCOCC4)oc23)cc1    73.9
COc1ccc(-c2c(OCc3cccnc3)ccc3c(=O)nc(N4CCOCC4)oc23)cc1    87.8
O=c1nc(N2CCOCC2)oc2c(-c3cc4ccccc4s3)c(OCc3cccnc3)ccc12    75.6

The values you see were collected from ChEMBL document CHEMBL4043200.
